Each recorded value in this set is attributed to patent US6924302B2.

Target: Insulin Receptor Kinase (Homo sapiens)
Sequence (P06213 980-1352): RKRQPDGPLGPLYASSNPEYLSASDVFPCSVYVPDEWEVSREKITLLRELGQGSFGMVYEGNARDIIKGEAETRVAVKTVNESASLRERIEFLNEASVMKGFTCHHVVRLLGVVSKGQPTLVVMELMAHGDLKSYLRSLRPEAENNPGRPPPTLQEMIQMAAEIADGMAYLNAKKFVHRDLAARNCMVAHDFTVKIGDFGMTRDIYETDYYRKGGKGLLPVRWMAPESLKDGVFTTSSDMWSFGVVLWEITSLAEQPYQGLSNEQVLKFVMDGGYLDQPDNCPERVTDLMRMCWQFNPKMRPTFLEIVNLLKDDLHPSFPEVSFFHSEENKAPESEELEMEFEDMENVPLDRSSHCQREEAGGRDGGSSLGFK
Experiment: Kinase Selectivity Assay Insulin Receptor Kinase
Type: biochemical
Settings: Kinase Selectivity, Tables 2a-2k; read-out: Insulin R Kinase IC50
pIC50: −log10 of the molar value.
Property: pIC50; scope: individual molecules

{"structure_smiles_string": "CC(C)(C)c1ccc(C(=O)n2nc(Nc3ccc(S(N)(=O)=O)cc3)nc2N)s1", "subject_of_test": "Insulin Receptor Kinase (Homo sapiens)", "inequality_symbol": "=", "pIC50": 7.11}
{"structure_smiles_string": "Cc1ccc(F)c(C(=O)n2nc(Nc3ccc(S(=O)(=O)NCCN(C)C)cc3)nc2N)c1F", "subject_of_test": "Insulin Receptor Kinase (Homo sapiens)", "inequality_symbol": "=", "pIC50": 5.01}
{"structure_smiles_string": "Cc1cc(C)c(C(=O)n2nc(Nc3ccc(S(=O)(=O)NCCN(C)C)cc3)nc2N)s1", "subject_of_test": "Insulin Receptor Kinase (Homo sapiens)", "inequality_symbol": "=", "pIC50": 6.51}
{"structure_smiles_string": "Nc1nc(Nc2ccc(S(N)(=O)=O)cc2)nn1C(=O)C1CCCC1", "subject_of_test": "Insulin Receptor Kinase (Homo sapiens)", "inequality_symbol": "<", "pIC50": 4.00}
{"structure_smiles_string": "Cc1cc(C)c(C(=O)n2nc(Nc3ccc(S(=O)(=O)Nc4ccccn4)cc3)nc2N)s1", "subject_of_test": "Insulin Receptor Kinase (Homo sapiens)", "inequality_symbol": "<", "pIC50": 4.00}

====

Target: Protein Kinase A (Bos taurus, UniProt P00517)
Construct: purified from bovine heart; purchased Upstate Biotech 14-114; host or cells: bovine heart
Assay: Kinase Selectivity Assay Protein Kinase A
Assay type: biochemical, bovine
Settings: Kinase Selectivity, Tables 2a-2k; read-out: PKA IC50
pIC50: −log10 of the molar value.
Property: pIC50; scope: individual molecules
endpoint_name: pIC50

{"structure_smiles_string": "Nc1nc(Nc2ccc(N3CCNC3=O)cc2)nn1C(=O)c1c(F)cccc1F", "endpoint_name": "pIC50", "measured": "< 4.00"}
{"structure_smiles_string": "CNS(=O)(=O)c1ccc(Nc2nc(N)n(C(=O)c3c(F)ccc(C)c3F)n2)cc1", "endpoint_name": "pIC50", "measured": "< 4.00"}
{"structure_smiles_string": "CCc1ccc(C(=O)n2nc(Nc3ccc(NS(C)(=O)=O)cc3)nc2N)s1", "endpoint_name": "pIC50", "measured": "< 4.00"}
{"structure_smiles_string": "CNS(=O)(=O)c1ccc(Nc2nc(N)n(C(=O)c3sc(C)cc3C)n2)cc1", "endpoint_name": "pIC50", "measured": "< 4.00"}
{"structure_smiles_string": "CCc1ccc(C(=O)n2nc(Nc3ccc(S(=O)(=O)NC)cc3)nc2N)s1", "endpoint_name": "pIC50", "measured": 5.66}

====

Target: UniProt P21802
Sequence (P21802 22-821, species assumed): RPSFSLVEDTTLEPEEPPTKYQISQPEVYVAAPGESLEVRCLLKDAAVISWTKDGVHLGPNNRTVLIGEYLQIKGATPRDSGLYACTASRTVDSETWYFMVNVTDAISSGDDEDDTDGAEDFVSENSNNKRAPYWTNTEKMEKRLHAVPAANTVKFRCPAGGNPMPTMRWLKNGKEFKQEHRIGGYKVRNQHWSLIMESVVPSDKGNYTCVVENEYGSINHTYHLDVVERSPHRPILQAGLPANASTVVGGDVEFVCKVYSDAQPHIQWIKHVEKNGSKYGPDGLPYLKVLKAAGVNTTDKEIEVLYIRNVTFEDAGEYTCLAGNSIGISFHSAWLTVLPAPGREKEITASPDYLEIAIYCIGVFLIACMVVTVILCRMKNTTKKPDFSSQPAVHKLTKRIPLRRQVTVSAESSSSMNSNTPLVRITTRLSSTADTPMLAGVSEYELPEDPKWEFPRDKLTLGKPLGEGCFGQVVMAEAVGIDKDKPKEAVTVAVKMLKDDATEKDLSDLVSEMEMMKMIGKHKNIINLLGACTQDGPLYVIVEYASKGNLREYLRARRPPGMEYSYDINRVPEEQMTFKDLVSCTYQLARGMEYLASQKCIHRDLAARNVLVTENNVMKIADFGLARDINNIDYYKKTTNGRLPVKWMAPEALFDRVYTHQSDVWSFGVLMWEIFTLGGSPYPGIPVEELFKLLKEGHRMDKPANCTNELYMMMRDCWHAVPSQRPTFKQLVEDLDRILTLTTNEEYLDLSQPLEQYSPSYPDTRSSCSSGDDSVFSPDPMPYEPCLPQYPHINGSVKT
pIC50: −log10 of the molar value.
Returns one of 1.0 or 0.0; 1.0 when pIC50 is >= 7.

{"structure_smiles_string": "Cc1ccc(F)c(C(=O)n2nc(Nc3ccc(S(N)(=O)=O)cc3)nc2N)c1Cl", "category_label": 0.0}
{"structure_smiles_string": "CNS(=O)(=O)c1ccc(Nc2nc(N)n(C(=O)c3c(F)ccc(C)c3F)n2)cc1", "category_label": 0.0}
{"structure_smiles_string": "CNS(=O)(=O)c1ccc(Nc2nc(N)n(C(=O)c3sc(C)cc3C)n2)cc1", "category_label": 1.0}
{"structure_smiles_string": "CCc1ccc(C(=O)n2nc(Nc3ccc(S(=O)(=O)NCCN(C)C)cc3)nc2N)s1", "category_label": 0.0}
{"structure_smiles_string": "Nc1nc(Nc2ccc(S(N)(=O)=O)cc2)nn1C(=O)c1c(F)cccc1Cl", "category_label": 0.0}
{"structure_smiles_string": "Cc1ccsc1C(=O)n1nc(Nc2ccc(S(=O)(=O)NCCN(C)C)cc2)nc1N", "category_label": 0.0}
{"structure_smiles_string": "Nc1nc(Nc2ccc(S(N)(=O)=O)cc2)nn1C(=O)c1cccs1", "category_label": 1.0}
